- Test system: U2OS
- Method: cell viability relative to DMSO; higher = less toxic
- Measurement Parameters: 72 h; 10 nM
Measurement Name: cell viability (%)
Numbers only here, please. The scale is %.

Worked cases, answers included:
> print(dat)
                                   molecule  assay.value
1  COc1ccc2c(c1)C(=O)N(CCc1ccc(S(=O)(=O)NC(=O)NC3CCCCC3)cc1)C(=O)C2(C)C         89.3
2  CC(C)(C)NCC(O)c1cc(Cl)c(N)c(C(F)(F)F)c1 (stereo not drawn)         93.6
3  O=C(/C=C/N1C[C@H]2C[C@@H]1CN2c1ccccn1)c1ccccc1O         99.7
4         N[C@H]1C[C@@H]1c1ccccc1 (racemic)          102
5  COc1cc2c(cc1C(F)(F)F)N(C(=O)Nc1cc(F)cc(-c3cccnc3)c1)CC2          105
6  C/C(=C\C(=O)OCCCCCCCCC(=O)O)C[C@@H]1OC[C@H](C[C@@H]2O[C@H]2[C@@H](C)[C@H](C)O)[C@@H](O)[C@H]1O         99.7
7        N=C1CCCN1Cc1[nH]c(=O)[nH]c(=O)c1Cl           99

Now look at this one.
Challenge: Which cell viability value belongs to N[C@@H](Cc1c[nH]c2ccc(O)cc12)C(=O)O [5-hydroxytryptophan] ?
Response given: 97.3
